test system: breast cancer MCF-7 cell line; assay: MTT antigrowth assay, MCF-7; assay type: cell-based; conditions: Homo sapiens, MCF7, 24 h treatment, preliminary results, read-out: IC50 antigrowth effect, MCF-7
Where a name gives a salt, the structure may show the parent alone.
measuredProperty: IC50 (nM)
Entry rule: numbers only, all in nM.

Looking up COc1cccc2c1C(=O)c1c(O)c3c(c(O)c1C2=O)C[C@@](O)(C(=O)CO)C[C@@H]3O[C@H]1C[C@H](N)[C@H](O)[C@H](C)O1 [doxorubicin hydrochloride, reference compound] , I see its IC50 listed as 1590

====

biological target: human LOX-5 (Homo sapiens); construct: purchased BioVision K980; experiment: Human LOX-5 inhibitory assay; format: biochemical
Sequence (P09917 whole entry): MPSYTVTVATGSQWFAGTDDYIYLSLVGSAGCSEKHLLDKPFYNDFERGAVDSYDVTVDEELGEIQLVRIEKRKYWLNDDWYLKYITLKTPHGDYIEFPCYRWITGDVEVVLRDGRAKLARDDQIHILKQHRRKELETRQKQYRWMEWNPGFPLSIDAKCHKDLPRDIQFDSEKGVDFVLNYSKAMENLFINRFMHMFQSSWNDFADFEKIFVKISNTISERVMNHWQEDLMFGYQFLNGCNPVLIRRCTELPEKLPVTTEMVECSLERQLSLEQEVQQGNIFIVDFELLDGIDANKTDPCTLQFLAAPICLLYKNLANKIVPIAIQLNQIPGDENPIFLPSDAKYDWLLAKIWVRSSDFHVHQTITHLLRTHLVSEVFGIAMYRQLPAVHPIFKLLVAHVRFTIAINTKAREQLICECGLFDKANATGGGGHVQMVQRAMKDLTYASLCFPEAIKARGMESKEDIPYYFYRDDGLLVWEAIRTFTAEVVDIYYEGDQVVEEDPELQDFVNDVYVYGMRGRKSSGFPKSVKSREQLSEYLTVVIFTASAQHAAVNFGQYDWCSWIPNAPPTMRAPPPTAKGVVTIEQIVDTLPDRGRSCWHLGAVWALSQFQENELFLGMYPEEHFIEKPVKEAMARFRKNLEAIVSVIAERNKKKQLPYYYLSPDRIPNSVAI
measuredProperty: IC50 (µM)
Entry rule: numbers only, all in µM.

Looking up COc1ccc(-c2cc3c(ccc4c(=O)c(C=O)coc43)o2)cc1 [Compound 2f] , I see its IC50 listed as 17.3

Looking up Cc1ccc(-c2cc3c(ccc4c(=O)c(C=O)coc43)o2)cc1 [Compound 2h] , I see its IC50 listed as 28.7

Looking up COc1cc(OC)cc(-c2cc3c(ccc4c(=O)c(C=O)coc43)o2)c1 [Compound 2g] , I see its IC50 listed as 24.6

====

Exercise: state measured pIC50 for each of the compounds provided.
pIC50 field: float, defined as -log10 of concentration (mol/L).

Reading of pIC50 for COc1cc(OC)cc(-c2cc3c(ccc4c(=O)c(C=O)coc43)o2)c1 [Compound 2g] with BChE (Homo sapiens, UniProt P06276): 4.63

Reading of pIC50 for COc1ccc(-c2cc3c(ccc4c(=O)c(C=O)coc43)o2)cc1 [Compound 2f] with BChE (Homo sapiens, UniProt P06276): 4.66

Reading of pIC50 for O=c1c(C=NNc2ccc(C(F)(F)F)cc2)coc2c1ccc1oc(-c3cccc(Cl)c3)cc12 [Compound 3d] with BChE (Homo sapiens, UniProt P06276): 4.52

Reading of pIC50 for O=Cc1coc2c(ccc3oc(-c4ccc(Cl)cc4)cc32)c1=O [Compound 2e] with BChE (Homo sapiens, UniProt P06276): 4.49

Reading of pIC50 for O=Cc1coc2c(ccc3oc(-c4cccc(Cl)c4)cc32)c1=O [Compound 2d] with BChE (Homo sapiens, UniProt P06276): 4.88

Reading of pIC50 for O=Cc1coc2c(ccc3oc(-c4ccccc4)cc32)c1=O [Compound 2a] with BChE (Homo sapiens, UniProt P06276): 4.47

Reading of pIC50 for Cc1ccc(-c2cc3c(ccc4c(=O)c(C=NNc5ccc(C(F)(F)F)cc5)coc43)o2)cc1 [Compound 3h] with BChE (Homo sapiens, UniProt P06276): 4.85

Reading of pIC50 for O=Cc1coc2c(ccc3oc(C4=CCCCC4)cc32)c1=O [Compound 2i] with BChE (Homo sapiens, UniProt P06276): 4.50

Reading of pIC50 for O=Cc1coc2c(ccc3oc(-c4ccc(F)cc4)cc32)c1=O [Compound 2c] with BChE (Homo sapiens, UniProt P06276): 4.55

====

molecular target: COX-2 (Homo sapiens, UniProt P35354)
Sequence (P35354 18-604): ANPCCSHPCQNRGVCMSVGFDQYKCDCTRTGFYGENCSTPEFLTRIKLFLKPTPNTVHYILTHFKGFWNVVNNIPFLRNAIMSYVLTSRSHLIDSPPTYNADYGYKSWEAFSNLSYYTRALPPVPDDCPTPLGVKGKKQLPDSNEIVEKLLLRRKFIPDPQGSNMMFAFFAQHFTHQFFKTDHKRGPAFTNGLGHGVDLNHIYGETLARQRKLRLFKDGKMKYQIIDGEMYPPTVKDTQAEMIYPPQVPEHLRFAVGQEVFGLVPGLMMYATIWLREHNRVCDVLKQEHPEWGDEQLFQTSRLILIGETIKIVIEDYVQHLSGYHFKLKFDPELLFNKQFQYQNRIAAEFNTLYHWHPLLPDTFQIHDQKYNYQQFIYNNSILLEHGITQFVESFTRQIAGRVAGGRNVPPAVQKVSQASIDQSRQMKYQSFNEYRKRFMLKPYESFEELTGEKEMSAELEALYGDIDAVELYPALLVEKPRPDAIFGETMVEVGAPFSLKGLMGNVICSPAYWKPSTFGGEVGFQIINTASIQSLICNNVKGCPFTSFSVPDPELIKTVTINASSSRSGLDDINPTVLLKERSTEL
measuredProperty: pIC50
pIC50 field: float, defined as -log10 of concentration (mol/L).

Looking up "O=Cc1coc2c(ccc3oc(-c4cccc(Cl)c4)cc32)c1=O" , I see its pIC50 listed as 4.64

Looking up "O=Cc1coc2c(ccc3oc(-c4cccc(F)c4)cc32)c1=O" , I see its pIC50 listed as 4.36

Looking up "O=Cc1coc2c(ccc3oc(-c4ccc(Cl)cc4)cc32)c1=O" , I see its pIC50 listed as 4.73

Looking up "Cc1ccc(-c2cc3c(ccc4c(=O)c(C=NNc5ccc(C(F)(F)F)cc5)coc43)o2)cc1" , I see its pIC50 listed as 4.65

Looking up "O=Cc1coc2c(ccc3oc(C4=CCCCC4)cc32)c1=O" , I see its pIC50 listed as 4.92

Looking up "O=Cc1coc2c(ccc3oc(-c4ccccc4)cc32)c1=O" , I see its pIC50 listed as 4.59

Looking up "COc1ccc(-c2cc3c(ccc4c(=O)c(C=O)coc43)o2)cc1" , I see its pIC50 listed as 4.86

Looking up "O=Cc1coc2c(ccc3oc(-c4ccc(F)cc4)cc32)c1=O" , I see its pIC50 listed as 4.80

Looking up "Cc1ccc(-c2cc3c(ccc4c(=O)c(C=O)coc43)o2)cc1" , I see its pIC50 listed as 4.70
